# assay-target: 4'-phosphopantetheinyl transferase ffp (Bacillus subtilis)
# assay-overview: qHTS Assay for Inhibitors of Bacillus subtilis Sfp phosphopantetheinyl transferase (PPTase);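 further: the enzyme is Sfp with the accession as filed and its product quenches rhodamine fluorescence; 0% = enzyme reaction without inhibitor and -100% = no enzyme wells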
# condition-label: Biochemical Sfp PPTase activity
The campaign covered roughly 310,000 compounds. About 11,000 (3.5%) were called active. Inconclusive results (about 4%) are left out. This is one part of a sample in which actives are shown more often than they occur.
largest response in the series, negative = inhibition listing for selected compounds.
metric: largest response in the series, negative = inhibition (%)

compound=CCN(CC)c1ccc2cc(C(N)=O)/c(=N\NC(=O)c3ccncc3)oc2c1 result_unit=% recorded_result=-4.99
compound=CN(CCO)S(=O)(=O)c1ccc2c(c1)C(=O)c1cc(S(=O)(=O)N(C)CCO)ccc1-2 result_unit=% recorded_result=0.575
compound=COc1ccc(/C=C/C(=O)N2CCCC2)cc1OC result_unit=% recorded_result=-0.604
compound=COc1ccc(/C=C/c2noc(-c3ccccc3OC(C)=O)n2)cc1 result_unit=% recorded_result=-16
compound=c1coc(CNc2ncnc3ccccc23)c1 result_unit=% recorded_result=8.96
compound=CC(C)c1ccc(NC(=O)Cn2ncc3ccccc32)cc1 result_unit=% recorded_result=13.4
compound=O=S(=O)(c1ccc(F)cc1)N1CCN=C1SCc1cccc(F)c1 result_unit=% recorded_result=5.65
compound="CC(C)C(C)NC(=O)COc1nc2ccccc2nc1N(C)C1CCCCC1 (centres undefined)" result_unit=% recorded_result=-0.152
compound=Cc1nnc(SCC(=O)Nc2cccc(N)c2)n1-c1ccccc1 result_unit=% recorded_result=20
compound="COc1ccc(C)cc1N(CC(=O)NC(C)c1ccccc1)S(C)(=O)=O (centres undefined)" result_unit=% recorded_result=4.53
compound=O=C(NC1Cc2ccccc2C1)c1cc(COc2cccc(C(F)(F)F)c2)on1 result_unit=% recorded_result=24
compound=CCn1c(C)c(C)c2cc(C(=O)N3CCN(c4cccc(C)c4C)CC3)ccc21 result_unit=% recorded_result=-24.3
compound=COC(=O)c1cnn2c(C(F)(F)F)cc(-c3ccco3)nc12 result_unit=% recorded_result=-3.33
compound="COc1ccc(N2C(=O)C(Cc3ccccc3)NC2=S)cc1 (centres undefined)" result_unit=% recorded_result=6.01
compound=CC(=O)Nc1ccc(OCC(=O)NCc2ccc(C)cc2)cc1 result_unit=% recorded_result=11.1
compound=COc1ccc(-n2cnnc2SCC(=O)Nc2cccc(S(N)(=O)=O)c2)cc1 result_unit=% recorded_result=3.4
compound=Cc1ccsc1-c1cc(C(=O)O)c2c(ccc3ccccc32)n1 result_unit=% recorded_result=5.93
compound=COc1cc(OC)c(C(=O)N2CCCC2)cc1OC result_unit=% recorded_result=10.6
compound=COC(=O)c1ccc(CSc2ccccc2C)o1 result_unit=% recorded_result=17.7
compound=Cc1[nH]c2ccc(C(=O)N3CCN(C)CC3)cc2c1C result_unit=% recorded_result=9.64
compound=COC(=O)c1ccc(OCC(=O)NC(C)(C)C)cc1 result_unit=% recorded_result=-10.7
compound=COc1cccc(C(=O)NC(=O)Nc2nc(C)cc(C(F)(F)F)n2)c1 result_unit=% recorded_result=14.9
compound=CCCn1c(SCC(=O)N2CCc3ccccc32)nnc1-c1ccncc1 result_unit=% recorded_result=15.4
compound="CCOc1ccc(CN2CCN(CCCc3ccccc3)C(CCO)C2)cc1 (centres undefined)" result_unit=% recorded_result=7.43

----------
# assay-target: 4'-phosphopantetheinyl transferase ffp (Bacillus subtilis)
# assay-overview: qHTS Assay for Inhibitors of Bacillus subtilis Sfp phosphopantetheinyl transferase (PPTase);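 further: the enzyme is Sfp with the accession as filed and its product quenches rhodamine fluorescence; 0% = enzyme reaction without inhibitor and -100% = no enzyme wells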
# condition-label: Biochemical Sfp PPTase activity
Hit rate of the full screen: of about 310,000 compounds, about 11,000 (3.5%) were called active. Another 4% or so got no clear call; they are omitted. Shown is part of a subset that was picked to be rich in actives.
Lab note: anything with largest response in the series, negative = inhibition at or over 10% counts as T; the rest go in F.

compound=COc1ccc(NS(=O)(=O)c2cc3c(cc2C)N(C(C)=O)CCO3)cc1 assay_target="4'-phosphopantetheinyl transferase ffp (Bacillus subtilis)" label_value=T
compound=Cc1cc(C)c(S(=O)(=O)c2cc(F)ccc2C)c(=O)[nH]1 assay_target="4'-phosphopantetheinyl transferase ffp (Bacillus subtilis)" label_value=T
compound="COC(=O)c1ccc(/C=N/N2C(C)CCCC2C)cc1 (stereo unspecified)" assay_target="4'-phosphopantetheinyl transferase ffp (Bacillus subtilis)" label_value=T
compound=O=C(C1CCC1)N1CCN(c2ccccc2)CC1 assay_target="4'-phosphopantetheinyl transferase ffp (Bacillus subtilis)" label_value=T
compound="CC(=O)NC(CC(=O)Nc1nc(-c2ccccc2)c(C(C)=O)s1)c1ccccc1 (stereo unspecified)" assay_target="4'-phosphopantetheinyl transferase ffp (Bacillus subtilis)" label_value=F
compound=Fc1cc(F)c2nc(Nc3nc4c(F)cccc4s3)sc2c1 assay_target="4'-phosphopantetheinyl transferase ffp (Bacillus subtilis)" label_value=F
compound="Cc1ccc(N2CC(C(=O)NCCS(=O)(=O)N3CCN(c4ccccc4)CC3)CC2=O)cc1 (stereo unspecified)" assay_target="4'-phosphopantetheinyl transferase ffp (Bacillus subtilis)" label_value=F
compound=COC(=O)c1ccc(/C=N\n2c(C)nnc2C)cc1 assay_target="4'-phosphopantetheinyl transferase ffp (Bacillus subtilis)" label_value=T
compound="CC(=O)N1Cc2ccccc2CC1C(=O)O (stereo unspecified)" assay_target="4'-phosphopantetheinyl transferase ffp (Bacillus subtilis)" label_value=F
compound=COc1ccc2[nH]c3c(C)c4cc[n+](C)cc4c(C)c3c2c1 assay_target="4'-phosphopantetheinyl transferase ffp (Bacillus subtilis)" label_value=F
compound=Cc1cc(SCC(=O)c2ccccc2)nc(SCC(=O)c2ccccc2)n1 assay_target="4'-phosphopantetheinyl transferase ffp (Bacillus subtilis)" label_value=T
